test system: SUDHL10 cells
pIC50: −log10 of the molar value.
reported metric: pIC50

>>> print(df.to_string())
                                   molecule  experimental_result
0  CCc1c2c(nn1C)COC/C=C\Cn1c(C(=O)O)c(CCCOc3cccc4ccccc34)c3ccc(Cl)c-2c31 (racemic) [Example 18]                 5.89

====

System: SUDHL5 cells
Assay: Antiproliferation assay (CellTiter-Glo, 72 h), SUDHL5
Assay type: cell-based
Conditions: IC50, median; SUDHL5, 72 h; listed as 097; read-out: Antiproli SUDHL5 [M] (median)
Protocol: Assessment of the Anti-Proliferative Effect of Compounds in Different Cell Lines The impact of compounds on the proliferation of different cell lines was assessed using the CellTiter-Glo® Luminescent Cell Viability reagent from Promega (G7573). In parallel, cells were plated in a reference (day 0) plate for time zero determination. Rim wells were excluded. […] After 72 h incubation, the treated plates were measured in the same way as the day 0 plate mentioned above.
reported metric: IC50 (M)

>>> print(df.to_string())
                                   molecule  measurement_unit  experimental_result
0  CCc1c2c(nn1C)COCCC(F)(F)Cn1c(C(=O)O)c(CCCOc3cccc4cc(F)ccc34)c3ccc(Cl)c-2c31 (single isomer, unassigned)                 M              5.5e-07

====

test system: SUDHL10 cells; test: Induction of caspase-3/7 activity (Caspase-Glo 3/7), SUDHL10; format: cell-based; conditions: EC50, median; SUDHL10, 3 h treatment; listed as 098
reported metric: EC50

                                   compound  experimental_result
0  CCc1c2c(nn1C)COCCC(F)(F)Cn1c(C(=O)O)c(CCCOc3cccc4cc(F)ccc34)c3ccc(Cl)c-2c31 (single isomer, unassigned) [Example 98]                 5 µM

====

test system: SUDHL10 cells; experiment: Induction of caspase-3/7 activity (Caspase-Glo 3/7), SUDHL10; format: cell-based; conditions: EC50, median; SUDHL10, 3 h treatment; listed as 081
reported metric: EC50 (µM)

>>> df
                                   compound  measurement_unit  experimental_result
0  Cc1c2c(nn1C)COCC1CCC1Cn1c(C(=O)O)c(CCCOc3cccc4ccccc34)c3ccc(Cl)c-2c31 (single isomer, unassigned) [Example 81]                µM                  6.2

====

tested on: SUDHL5 cells; assay: Induction of cytotoxicity (CellTiter-Glo, 5 h), SUDHL5; conditions: read-out: Cytotox SUDHL5 [M] (median); IC50, median; SUDHL5, 5 h; listed as 086
reported metric: IC50 (M)

>>> print(df.to_string())
                                   compound  reported_metric  experimental_result
0  CCc1c2c(nn1C)COCC(F)(F)CCn1c(C(=O)O)c(CCCOc3cccc4cc(F)ccc34)c3ccc(Cl)c-2c31 (single isomer, unassigned)             IC50              6.3e-07

====

tested on: SUDHL5 cells; test: Induction of cytotoxicity (CellTiter-Glo, 5 h), SUDHL5; conditions: read-out: Cytotox SUDHL5 [M] (median); IC50, median; SUDHL5, 5 h; listed as 095
reported metric: IC50

>>> print(df.to_string())
                                   compound  reported_metric  experimental_result
0  Cc1c2c(nn1C)COCCC(F)(F)Cn1c(C(=O)O)c(CCCOc3cccc4ccccc34)c3ccc(Cl)c-2c31 [Example 95]             IC50            7.7e-07 M
